Where do these numbers come from? They come from PubChem BioAssay (NCI).

System: HCT-15 colon
Test: NCI tumour cell line growth inhibition, 48 h

>  <Molecule>
O=C1c2cc([N+](=O)[O-])ccc2-c2ccc3c4ccc5c6c(ccc(c7ccc1c2c73)c64)C(=O)c1cc([N+](=O)[O-])ccc1-5

>  <Measurement target>
HCT-15 colon

>  <TGI>
> 100 µM

$$$$
>  <Molecule>
OCCOc1ccccc2cccc1-2

>  <Measurement target>
HCT-15 colon

>  <TGI>
> 100 µM

$$$$
>  <Molecule>
COc1ccc(C(=O)C(c2ccc(OCc3ccccc3)cc2)c2ccc(OCc3ccccc3)cc2)cc1

>  <Measurement target>
HCT-15 colon

>  <TGI>
> 100 µM

$$$$
>  <Molecule>
N#C[Se]CCCNS(=O)(=O)C1CC2C=CC1C2 (centres undefined)

>  <Measurement target>
HCT-15 colon

>  <TGI>
3.65 µM

$$$$

---

Test system: SK-OV-3 ovarian
Experiment: NCI tumour cell line growth inhibition, 48 h
Recorded endpoint: GI50

>  <Compound>
CC(=O)OC1CC2C3CCC4C[C@@H](NC(=O)C=C(C)C)CC[C@]4(C)C3CC[C@]2(C)[C@H]1C(C)N(C)C (stereo partly specified)

>  <Result>
2.79 µM

$$$$
>  <Compound>
CCN1Cc2nc3sc(C)c(C)c3c(=O)n2C=C1C

>  <Result>
74.1 µM

$$$$
>  <Compound>
Cc1cc(N(CCCl)CCCl)ccc1C=Nc1ccc2ccccc2c1

>  <Result>
19.3 µM

$$$$
>  <Compound>
COc1ccc(Nc2cc(C)nc(NCCCNc3ccnc4cc(Cl)ccc34)n2)cc1

>  <Result>
1.67 µM

$$$$
>  <Compound>
CCOc1cccc(-c2nc(N)nc(Nc3ccccc3SSc3ccccc3Nc3nc(N)nc(-c4cccc(OCC)c4)n3)n2)c1

>  <Result>
4.87 µM

$$$$
>  <Compound>
NC(N)=N/N=C/c1ccc(-c2ccc(-c3cc(Cl)cc(Cl)c3)s2)cc1

>  <Result>
2 µM

$$$$

---

Below is a list of entries, each paired with its recorded TGI value.
Test system: HOP-62 NSCLC
Experiment: NCI tumour cell line growth inhibition, 48 h
Recorded endpoint: TGI

>  <Compound>
O=C1C=CC(=O)c2c1ccc1c3ccccc3n(-c3ccccc3[N+](=O)[O-])c21

>  <Result>
> 53.7 µM

$$$$
>  <Compound>
CC1C(OC2O[C@@H]3O[C@@]4(C)CC[C@H]5[C@H](C)CC[C@@H](C2C)[C@@]35O4)O[C@@H]2O[C@@]3(C)CC[C@H]4[C@H](C)CC[C@@H]1[C@@]24O3 (some centres undefined)

>  <Result>
> 50 µM

$$$$
>  <Compound>
COc1ccccc1/C=C1\NC(=S)N(/C=C2\C(=O)Oc3ccccc3C2=O)C1=O

>  <Result>
> 100 µM

$$$$
>  <Compound>
O=C(Nc1n[nH]c2nnc(-c3cccnc3)cc12)C1CC1

>  <Result>
> 25 µM

$$$$
>  <Compound>
CC(=O)Nc1nnc(S(C)(=O)=O)s1

>  <Result>
> 100 µM

$$$$
>  <Compound>
COc1ccc(C2C3CCc4ccccc4C3=NN2S(=O)(=O)c2ccc(/C=C/C(=O)O)cc2)cc1 (centres undefined)

>  <Result>
> 100 µM

$$$$
>  <Compound>
CC1OC(OC2C(OC3CCC4(C)C(CCC5(C)C4CC=C4C6CC(C)(C)CCC6(C(=O)O)CCC45C)C3(C)CO)OCC(O)C2O)C(O)C(O)C1O (centres undefined)

>  <Result>
> 100 µM

$$$$
>  <Compound>
CC(=O)c1cc(C(=O)c2ccc3c(c2)Sc2ccccc2N3)c2cc(C)ccn12

>  <Result>
> 100 µM

$$$$
>  <Compound>
O=C(CCCl)NNC1=NCCCN1

>  <Result>
> 100 µM

$$$$
>  <Compound>
NN1C(=O)C(CCO)S/C1=N/N=C1/SC(CCO)C(=O)N1N (centres undefined)

>  <Result>
> 100 µM

$$$$
>  <Compound>
COc1cc(-c2c(C#N)c(N)nc(N3CCOCC3)c2C#N)cc(OC)c1OC

>  <Result>
> 100 µM

$$$$
>  <Compound>
NNC(=O)N/N=C1\C(=O)N(c2ccc(Cl)c(Cl)c2)C(=O)C(=O)C1c1nc2ccccc2s1 (centres undefined)

>  <Result>
> 100 µM

$$$$
>  <Compound>
Cc1cccc(-c2cc(=O)c3c(C)cc(C)nc3[nH]2)c1

>  <Result>
> 100 µM

$$$$
>  <Compound>
O=C(/C(=C\c1ccc(Cl)cc1)c1ccccc1)c1ccccc1

>  <Result>
> 100 µM

$$$$
>  <Compound>
COc1cccc(N(CN2C(=O)CCC2C(=O)O)C(C)=O)c1 (centres undefined)

>  <Result>
> 100 µM

$$$$
>  <Compound>
CC(=O)NC(Cc1ccsc1)C(=O)O (centres undefined)

>  <Result>
> 100 µM

$$$$
>  <Compound>
Cc1ccc(Cl)c(Nc2ccccc2C(=O)O)c1Cl

>  <Result>
> 100 µM

$$$$
>  <Compound>
Cc1nnc(N)nc1/C=C/c1c(O)ccc2ccccc12

>  <Result>
> 100 µM

$$$$
>  <Compound>
CC(C)(C)CC(N)=O

>  <Result>
> 100 µM

$$$$

---

Tested on: OVCAR-8 ovarian
Assay: NCI tumour cell line growth inhibition, 48 h
Recorded endpoint: TGI (µM)

>  <Compound>
CCCCCC/C=C1\CCC(CN2CCOCC2)C1=O (centres undefined)

>  <Bound operator>
=

>  <Numeric readout>
32.7

$$$$
>  <Compound>
COc1cc(C(=O)Nc2cc(OC)c3ccn(C)c3c2)cc2c1C[C@]1(C)CC[C@@H](O)C(C)(C)[C@H]1O2

>  <Bound operator>
=

>  <Numeric readout>
58

$$$$
>  <Compound>
Cc1ccccc1-n1c2nc(=O)n(C)c(=O)c-2nc2ccccc21

>  <Bound operator>
=

>  <Numeric readout>
33.6

$$$$
>  <Compound>
CC(=O)Nc1nnc(S(C)(=O)=O)s1

>  <Bound operator>
>

>  <Numeric readout>
100

$$$$

---

Test system: K-562 leukemia
Test: NCI tumour cell line growth inhibition, 48 h
Recorded endpoint: TGI

>  <Compound>
COc1cc2c(cc1Nc1nc(Nc3cccc(F)c3C(N)=O)c3cc[nH]c3n1)N(C(=O)CN1CCN(C(C)C)CC1)CC2

>  <Measurement target>
K-562 leukemia

>  <Result>
11 µM

$$$$
>  <Compound>
CCOc1cc2oc(C)cc(=O)c2c(OC)c1C=Nc1ccc(Cn2c(C)nc3ccccc32)cc1

>  <Measurement target>
K-562 leukemia

>  <Result>
> 100 µM

$$$$
>  <Compound>
COc1cccc(NC(=O)C(=O)C(C(=O)c2ccccc2F)C2OC(=O)c3ccccc32)c1 (stereo not drawn)

>  <Measurement target>
K-562 leukemia

>  <Result>
> 100 µM

$$$$
>  <Compound>
CC1C(OC2O[C@@H]3O[C@@]4(C)CC[C@H]5[C@H](C)CC[C@@H](C2C)[C@@]35O4)O[C@@H]2O[C@@]3(C)CC[C@H]4[C@H](C)CC[C@@H]1[C@@]24O3 (stereo partly drawn)

>  <Measurement target>
K-562 leukemia

>  <Result>
> 50 µM

$$$$
>  <Compound>
CN1CCN(Cc2ccc(NC(=O)c3cccc(C#Cc4cnc(N)c5ncccc45)c3F)cc2C(F)(F)F)CC1

>  <Measurement target>
K-562 leukemia

>  <Result>
0.733 µM

$$$$
>  <Compound>
Cc1c2ccncc2c(C)c2c1[nH]c1ccc(OCC(F)(F)F)cc12

>  <Measurement target>
K-562 leukemia

>  <Result>
3.91 µM

$$$$
>  <Compound>
Cc1ccc2c(c1)S(=O)(=O)c1ccc3ccccc3c1N2

>  <Measurement target>
K-562 leukemia

>  <Result>
> 100 µM

$$$$
>  <Compound>
Cc1ccc2nc(C=Nc3ccc(Cl)cc3)cc(C)c2c1

>  <Measurement target>
K-562 leukemia

>  <Result>
> 39.5 µM

$$$$
>  <Compound>
O=C(O)c1ccc(C(=O)O)c(C(=O)Nc2ccc3c(c2)C(=O)c2ccccc2-3)c1

>  <Measurement target>
K-562 leukemia

>  <Result>
> 100 µM

$$$$
>  <Compound>
CC(=O)C1=C(C)N(c2ccc(C)cc2)C2(O)C3=C(C(=O)c4ccccc4C3=O)C(O)=CC12Cl (stereo not drawn)

>  <Measurement target>
K-562 leukemia

>  <Result>
> 100 µM

$$$$
>  <Compound>
CCOC(=O)C(=O)/C(=C/N1C(=O)CC(=O)NC1=S)C(=O)OCC

>  <Measurement target>
K-562 leukemia

>  <Result>
> 100 µM

$$$$
>  <Compound>
NN1C(=O)C(CCO)S/C1=N/N=C1/SC(CCO)C(=O)N1N (stereo not drawn)

>  <Measurement target>
K-562 leukemia

>  <Result>
> 100 µM

$$$$
>  <Compound>
CCCCCCCCC(=O)OCC(CS[As](C)C)OC(=O)CCCCCCCC (stereo not drawn)

>  <Measurement target>
K-562 leukemia

>  <Result>
12.9 µM

$$$$
